Organism: Rattus norvegicus
measurement_protocol: DrugMatrix - Regimen: Daily Repeat
Assay type: toxicity, organism-based, Sprague-Dawley
Set-up: regimen Daily Repeat, gender Male, age 6-8 weeks
condition_set: in vivo, po, 0 mg/kg, 120 h, tissue Plasma, route oral GAVAGE, dose level Control, time 5 day, […]
Reported ASPARTATE AMINOTRANSFERASE is given for each of the following compounds.
experimental_endpoint: ASPARTATE AMINOTRANSFERASE (u/L)

> print(dat)
                                    compound       experimental.endpoint  numeric.readout
 1  CN(CCOc1ccc(CC2SC(=O)NC2=O)cc1)c1ccccn1 (stereo not given)  ASPARTATE AMINOTRANSFERASE             84.5
 2       COc1ncnc(NS(=O)(=O)c2ccc(N)cc2)c1OC  ASPARTATE AMINOTRANSFERASE            83.33
 3  CCn1cc(C(=O)O)c(=O)c2cc(F)c(N3CCNCC3)nc21  ASPARTATE AMINOTRANSFERASE            81.33
 4  CC[C@H](C)C(=O)O[C@H]1C[C@@H](C)C=C2C=C[C@H](C)[C@H](CC[C@@H]3C[C@@H](O)CC(=O)O3)[C@H]21  ASPARTATE AMINOTRANSFERASE            89.67
 5                   CC(C)Cc1ccc(CC(=O)O)cc1  ASPARTATE AMINOTRANSFERASE               91
 6  C#C[C@]1(O)CC[C@H]2[C@@H]3CCc4cc(O)ccc4[C@H]3CC[C@@]21C  ASPARTATE AMINOTRANSFERASE            81.33
 7  CC(C)OC(=O)C(C)(C)Oc1ccc(C(=O)c2ccc(Cl)cc2)cc1 [FENOFIBRATE]  ASPARTATE AMINOTRANSFERASE               83
 8  CC(=O)Nc1nnc(S(N)(=O)=O)s1 [ACETAZOLAMIDE]  ASPARTATE AMINOTRANSFERASE            83.33
 9  CC(CCc1ccc(O)cc1)NCCc1ccc(O)c(O)c1 (stereo not given)  ASPARTATE AMINOTRANSFERASE               80
10  OCCN1CCN(CCCN2c3ccccc3Sc3ccc(C(F)(F)F)cc32)CC1  ASPARTATE AMINOTRANSFERASE               83

----------
Organism: Rattus norvegicus
measurement_protocol: DrugMatrix - Regimen: Daily Repeat
Format: toxicity, organism-based, Sprague-Dawley
Set-up: regimen Daily Repeat, gender Male, age 6-8 weeks
condition_set: in vivo, po, 1500 mg/kg, 72 h, tissue Blood, route oral GAVAGE, dose level High, time 3 day, vehicle .5 % CMC
Reported HEMOGLOBIN is given for each of the following molecules.
experimental_endpoint: HEMOGLOBIN (G/DL)

> print(dat)
                                   molecule  numeric.readout
1  CCOC(=O)[C@H](CCc1ccccc1)N[C@@H](C)C(=O)N1CCC[C@H]1C(=O)O            13.63
2  C[C@@H](O)[C@H]1C(=O)N2C(C(=O)O)=C(S[C@@H]3CN[C@H](C(=O)N(C)C)C3)[C@H](C)[C@H]12 [MEROPENEM]            13.53
3  Nc1nc2c(c(=O)[nH]1)N(C=O)C(CNc1ccc(C(=O)N[C@@H](CCC(=O)O)C(=O)O)cc1)CN2 (stereo not given in full) [LEUCOVORIN]            13.77
4  O=c1cc(-c2ccccc2)oc2ccc3ccccc3c12 [BETA-NAPHTHOFLAVONE]             13.9
5  CC(C)(Sc1cc(C(C)(C)C)c(O)c(C(C)(C)C)c1)Sc1cc(C(C)(C)C)c(O)c(C(C)(C)C)c1 [PROBUCOL]            13.37
